FYI, the data here is from paper PMC9820444.

- Test system: zebrafish embryos
- Condition context: zebrafish embryos 72 hpf, 1 mg/mL
Property measured: MAR (malformation rate) (% ^a)
Unit % ^a implied. Number only.

INSERT INTO measurements (compound, test_value) VALUES
  ('COc1ccc2nc3ccccc3c(NC(=S)NNC(=O)c3ccccc3)c2c1 [4b]', 70),
  ('COc1ccc(C(=O)NNC(=S)Nc2c3ccccc3nc3ccc(OC)cc23)cc1 [4c]', 50),
  ('COc1ccc(C(=O)NNC(=S)Nc2c3ccccc3nc3ccc(C)cc23)cc1 [4h]', 35);

Now for a further compound.
Task item: I would be grateful if you could share the reported MAR (malformation rate) for COc1ccc(-n2c(-c3c4ccccc4nc4ccc(C)cc34)n[nH]c2=S)cc1 [5h] .
Reply: 5
